Test system: F1*sub RNA substrate (template-directed ligation)
Experiment: fraction ligated after 30 min (ligated reads / total reads); higher = more ligase activity; sequences stand for … in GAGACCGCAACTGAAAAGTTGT…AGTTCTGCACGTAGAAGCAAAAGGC
Settings: 42 °C
This listing pairs sequences with measured fraction ligated.

entry sequence: TATCACTTGTGTAAGACACTTTGATGGTTGA [3d1796]
tested system: F1*sub RNA substrate (template-directed ligation)
fraction ligated: 0.0289

entry sequence: TATCACTGTCGTAAACACTTTGGAGGGTTGA [3d1404]
tested system: F1*sub RNA substrate (template-directed ligation)
fraction ligated: 0.0511

entry sequence: ATCCTTGTCGTAGACACTTTGGATGGGTTGA [3d73]
tested system: F1*sub RNA substrate (template-directed ligation)
fraction ligated: 0.758

entry sequence: TCACTTGTCGTAAGACACTTTGGATGGGTTA [3d22]
tested system: F1*sub RNA substrate (template-directed ligation)
fraction ligated: 0.427

entry sequence: TATCACTTGTCGAAGACACTTTGTGGGTTGA [3d1965]
tested system: F1*sub RNA substrate (template-directed ligation)
fraction ligated: 0.0368

entry sequence: TATCATTGTCGTAAGACACTTTATGGGTTGA [3d1276]
tested system: F1*sub RNA substrate (template-directed ligation)
fraction ligated: 0.0281

entry sequence: TATCACTTGTCGTAAGACACTTGATGGGTTGA [2d277]
tested system: F1*sub RNA substrate (template-directed ligation)
fraction ligated: 0.662

entry sequence: TATCATTGTGAAGACACTTTGGATGGGTTGA [3d1173]
tested system: F1*sub RNA substrate (template-directed ligation)
fraction ligated: 0.824

entry sequence: TACACTTGTCGTAGACCTTTGGATGGGTTGA [3d663]
tested system: F1*sub RNA substrate (template-directed ligation)
fraction ligated: 0.173

entry sequence: ATCACTTGTGAAGACACTTTGGATGGGTTGA [3d157]
tested system: F1*sub RNA substrate (template-directed ligation)
fraction ligated: 0.815

entry sequence: TTCACTTGTCGTAAGACACTTTGATGGTTGA [3d494]
tested system: F1*sub RNA substrate (template-directed ligation)
fraction ligated: 0.0545

entry sequence: TATCACTTGTCGTAGCACTTTGGAGGGTTGA [3d2009]
tested system: F1*sub RNA substrate (template-directed ligation)
fraction ligated: 0.101

entry sequence: TATCACTTTCGAAGACATTTGGATGGGTTGA [3d1498]
tested system: F1*sub RNA substrate (template-directed ligation)
fraction ligated: 0.769

entry sequence: TATCCTTGTCGAAACACTTTGGATGGGTTGA [3d1030]
tested system: F1*sub RNA substrate (template-directed ligation)
fraction ligated: 0.81

entry sequence: TATACTTGTCGTAAGACCTTTGGATGGGTTGA [2d81]
tested system: F1*sub RNA substrate (template-directed ligation)
fraction ligated: 0.746

entry sequence: TACACGTCGTAAGACACTTTGGATGGGTTGA [3d566]
tested system: F1*sub RNA substrate (template-directed ligation)
fraction ligated: 0.266

entry sequence: TACACTTGTCGAAGAACTTTGGATGGGTTGA [3d649]
tested system: F1*sub RNA substrate (template-directed ligation)
fraction ligated: 0.195

entry sequence: TATCCTTGTCGAAGACATTTGGATGGGTTGA [3d1034]
tested system: F1*sub RNA substrate (template-directed ligation)
fraction ligated: 0.79

entry sequence: TATCACTTGTCGTAAGACACTTTGGAGGGTTG [2d295]
tested system: F1*sub RNA substrate (template-directed ligation)
fraction ligated: 0.0513

entry sequence: TATCACTTGTCGTAAGACACTTTGGTGGGTT [3d2275]
tested system: F1*sub RNA substrate (template-directed ligation)
fraction ligated: 0.011

entry sequence: TATCACTTGTCGTAGACACTTTGGAGGTTGA [3d2052]
tested system: F1*sub RNA substrate (template-directed ligation)
fraction ligated: 0.072

entry sequence: TATCACTTGTCGTAAGCCTTTGGAGGGTTGA [3d2117]
tested system: F1*sub RNA substrate (template-directed ligation)
fraction ligated: 0.252

entry sequence: TATACTTGTCGTAAGACCTTTGGAGGGTTGA [3d914]
tested system: F1*sub RNA substrate (template-directed ligation)
fraction ligated: 0.0249

entry sequence: TATCACTTTCGTAAGACACTTGGATGGGTTA [3d1566]
tested system: F1*sub RNA substrate (template-directed ligation)
fraction ligated: 0.477
